Target: panel of 442 kinases (Homo sapiens)
Construct: purchased Ambit Biosciences (scanMAXX KINOMEscan)
Sequence (O75914 whole entry): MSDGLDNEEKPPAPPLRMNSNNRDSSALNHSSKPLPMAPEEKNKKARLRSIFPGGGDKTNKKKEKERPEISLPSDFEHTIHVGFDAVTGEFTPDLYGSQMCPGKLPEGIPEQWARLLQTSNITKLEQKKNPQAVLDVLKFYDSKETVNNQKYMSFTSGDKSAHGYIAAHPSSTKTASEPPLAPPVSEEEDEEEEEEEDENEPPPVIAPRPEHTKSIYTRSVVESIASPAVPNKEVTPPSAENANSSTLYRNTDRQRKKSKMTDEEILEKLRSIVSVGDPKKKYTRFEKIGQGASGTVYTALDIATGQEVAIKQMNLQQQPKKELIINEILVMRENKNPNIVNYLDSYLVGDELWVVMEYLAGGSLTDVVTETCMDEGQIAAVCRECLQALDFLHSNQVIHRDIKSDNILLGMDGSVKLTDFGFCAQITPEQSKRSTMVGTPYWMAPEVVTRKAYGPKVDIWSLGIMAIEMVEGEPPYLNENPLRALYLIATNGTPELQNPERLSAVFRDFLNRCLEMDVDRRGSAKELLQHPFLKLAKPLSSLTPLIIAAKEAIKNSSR
Test: biochemical
Assay type: binding
Conditions: kinase PAK3; 1 µM; read-out: % of control at 1 µM
Measurement Name: remaining activity at 1 µM (%)

INSERT INTO results (compound, tested_on, measurement_name, reported) VALUES
  ('Cn1c(=O)n(-c2ccc(C(C)(C)C#N)cc2)c2c3cc(-c4cnc5ccccc5c4)ccc3ncc21 [Dactolisib]', 'panel of 442 kinases (Homo sapiens)', 'remaining activity at 1 µM', 86),
  ('COc1ncc(-c2ccc3nccc(-c4ccnnc4)c3c2)cc1NS(=O)(=O)c1ccc(F)cc1F [Omipalisib]', 'panel of 442 kinases (Homo sapiens)', 'remaining activity at 1 µM', 100),
  ('Nc1cc(C(F)(F)F)c(-c2cc(N3CCOCC3)nc(N3CCOCC3)n2)cn1 [Buparlisib]', 'panel of 442 kinases (Homo sapiens)', 'remaining activity at 1 µM', 89),
  ('FC(F)c1nc2ccccc2n1-c1nc(N2CCOCC2)nc(N2CCOCC2)n1 [ZSTK474]', 'panel of 442 kinases (Homo sapiens)', 'remaining activity at 1 µM', 73);
